assay: self-splicing fitness, log relative to wild type (ln ratio); higher = more splicing; Tetrahymena group I intron in knt gene, E. coli kanamycin selection, DiMSum; sequences stand for … in CUCUCU…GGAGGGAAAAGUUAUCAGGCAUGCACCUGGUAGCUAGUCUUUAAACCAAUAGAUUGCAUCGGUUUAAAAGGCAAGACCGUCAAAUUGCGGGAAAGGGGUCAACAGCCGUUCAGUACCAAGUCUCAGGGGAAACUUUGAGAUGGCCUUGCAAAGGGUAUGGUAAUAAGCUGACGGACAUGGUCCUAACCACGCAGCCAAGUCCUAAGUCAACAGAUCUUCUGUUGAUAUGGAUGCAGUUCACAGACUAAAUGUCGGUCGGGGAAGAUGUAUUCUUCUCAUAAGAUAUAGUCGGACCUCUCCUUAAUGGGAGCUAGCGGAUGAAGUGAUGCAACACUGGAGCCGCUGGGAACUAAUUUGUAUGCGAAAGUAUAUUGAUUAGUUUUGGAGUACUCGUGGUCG; details: 30 °C;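 further: selection with 25 µg/mL kanamycin versus none on LB agar overnight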
Assignment: determine reported self-splicing fitness (ln) for the given sequences.

What value of self-splicing fitness (ln) has been reported for the following sequence? `UCGUAGCAAUAUUACGUUCG` -1.45

# self-splicing fitness (ln) lookup, item `AGGGAGCAAUAUUACGACUG` -2.15

Which self-splicing fitness (ln) is listed for `AGGCAGCAAUAUUACGUCCA` ? -0.459

I would be grateful if you could share the reported self-splicing fitness (ln) for `GAACAGCAAUAUUACGCUCG` . -0.797

# get_value(readout='self-splicing fitness (ln)', item= `GUCAAGCAAUAUUACGGCGC` ) -0.751

Consider the sequence `AAAAAGCAAUAUUACGUUGU` and give its measured self-splicing fitness (ln). -3.71

If you can, please state the reported self-splicing fitness (ln) value of `GAGAAGCAAUAUUACGUUGG` . -2.35

Name the recorded self-splicing fitness (ln) for `GUCUAGCAAUAUUACGACCG` . -1.42

Entry source: the supplement of paper PMC7877785
